Recorded measurements of interaction score, one per entry
# System: T1, 4H2622-AA
# T1 chain: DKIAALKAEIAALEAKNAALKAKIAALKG
# Test method notes: two-hybrid library CCmax;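 note: natural log of median RNA to DNA barcode read ratio; higher means stronger binding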
# Condition: mean of both orientations
Property measured: interaction score

Binder: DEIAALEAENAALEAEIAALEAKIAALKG [4H134-AA]
Number: 2.38
--
Binder: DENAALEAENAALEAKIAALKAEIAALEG [4H1193-AA]
Number: 1.87
--
Binder: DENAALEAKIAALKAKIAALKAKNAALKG [4H1392-AA]
Number: -1.4
--
Binder: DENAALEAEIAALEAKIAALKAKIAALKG [4H1070-AA]
Number: 1.21
--
Binder: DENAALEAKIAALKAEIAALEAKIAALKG [4H1350-AA]
Number: 1.12
--
Binder: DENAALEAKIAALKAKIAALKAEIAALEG [4H1385-AA]
Number: 1.24
